system: Avena fatua (AVEFA); assay: Glasshouse herbicidal test, pre- and post-emergence, percentage damage to the plant; assay type: in vivo; conditions: pre-emergence, 250 g/h, evaluated after 13 days
Parameter: AVEFA PRE percentage damage caused to the plant (five-point scale). Scope: all listed entries.
Readout: AVEFA PRE percentage damage caused to the plant (five-point scale)

> print(dat)
                                   compound  value.measured
1  CC#Cc1cc(C)c(C2C(=O)CC3(CCCN(C(C)=O)CC3)CC2=O)c(C)c1 (stereo not shown)   5 (5=80-100%)
2  CC#Cc1cc(C)c(C2C(=O)CC3(CCNC(=O)C3)CC2=O)c(C)c1 (stereo not shown)    3 (3=40-59%)
3  CC#Cc1cc(C)c(C2C(=O)CC3(CCC(=O)N(CC(=O)OC)C3)CC2=O)c(C)c1 (stereo not shown)    3 (3=40-59%)
4  CC#Cc1cc(C)c(C2C(=O)CC3(CCN(C(C)=O)C3)CC2=O)c(C)c1 (stereo not shown)   5 (5=80-100%)
